As shown below, each of these compounds has a reported IC50 value.
target: FLT3-ITD (Homo sapiens, UniProt P36888, ITD); test: FLT3-ITD enzyme inhibition assay; format: biochemical
Sequence (P36888 whole entry, looked up, change not shown): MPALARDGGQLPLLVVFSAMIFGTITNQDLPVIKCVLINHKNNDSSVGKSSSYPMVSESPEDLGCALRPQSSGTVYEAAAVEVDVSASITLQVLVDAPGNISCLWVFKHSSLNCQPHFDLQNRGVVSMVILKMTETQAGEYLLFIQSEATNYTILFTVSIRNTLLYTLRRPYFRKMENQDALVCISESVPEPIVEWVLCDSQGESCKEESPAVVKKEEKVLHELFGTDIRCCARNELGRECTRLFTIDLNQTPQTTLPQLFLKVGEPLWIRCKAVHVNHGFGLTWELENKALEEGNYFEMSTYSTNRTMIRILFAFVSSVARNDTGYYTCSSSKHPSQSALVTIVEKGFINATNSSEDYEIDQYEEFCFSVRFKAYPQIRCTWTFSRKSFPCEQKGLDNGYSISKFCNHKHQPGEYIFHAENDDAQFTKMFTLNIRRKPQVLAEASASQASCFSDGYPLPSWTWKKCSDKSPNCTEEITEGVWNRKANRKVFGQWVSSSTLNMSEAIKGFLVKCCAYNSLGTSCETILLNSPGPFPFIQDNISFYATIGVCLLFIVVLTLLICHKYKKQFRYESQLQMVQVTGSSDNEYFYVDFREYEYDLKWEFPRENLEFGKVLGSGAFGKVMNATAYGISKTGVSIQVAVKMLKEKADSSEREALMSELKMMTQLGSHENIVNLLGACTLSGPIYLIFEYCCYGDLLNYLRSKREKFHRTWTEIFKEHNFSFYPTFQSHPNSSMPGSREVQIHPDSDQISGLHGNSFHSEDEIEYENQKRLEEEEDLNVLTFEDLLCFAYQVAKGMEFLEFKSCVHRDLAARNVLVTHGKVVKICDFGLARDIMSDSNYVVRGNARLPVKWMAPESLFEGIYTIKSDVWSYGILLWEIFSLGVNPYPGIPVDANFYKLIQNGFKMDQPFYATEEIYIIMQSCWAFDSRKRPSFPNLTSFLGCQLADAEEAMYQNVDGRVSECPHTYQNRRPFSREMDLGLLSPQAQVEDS

Compound	Value units	IC50
CCc1c[nH]c2ncc(-c3cccc(N4CCCN(CCC5CCN(c6ccc(NC7CCC(=O)NC7=O)cc6F)CC5)C4=O)c3)c(Cl)c12 (stereo not shown) [Example 16]	nM	12.3
CCc1c[nH]c2ncc(-c3cccc(N4CCCN(CC5CCN(c6ccc7c(c6)C(=O)N(C6CCC(=O)NC6=O)C7=O)CC5)C4=O)c3)c(Cl)c12 (stereo not shown) [Example 8]	nM	5.7
CCc1c[nH]c2ncc(-c3cccc(N4CCCN(CCN5CC(c6ccc7c(c6)CN(C6CCC(=O)NC6=O)C7=O)C5)C4=O)c3)c(Cl)c12 (stereo not shown) [Example 2]	nM	4.7
CCc1c[nH]c2ncc(-c3cccc(N4CCCN(CC5CCN(c6ccc(NC7CCC(=O)NC7=O)cc6F)CC5)C4=O)c3)c(Cl)c12 (stereo not shown) [Example 15]	nM	8.8
